pIC50 reference
- ASSAYED SYSTEM: human ADAMTS6 (Homo sapiens (Human))
- Sequence (Q9UKP5 other isoform, or with tags, fused parts or gaps): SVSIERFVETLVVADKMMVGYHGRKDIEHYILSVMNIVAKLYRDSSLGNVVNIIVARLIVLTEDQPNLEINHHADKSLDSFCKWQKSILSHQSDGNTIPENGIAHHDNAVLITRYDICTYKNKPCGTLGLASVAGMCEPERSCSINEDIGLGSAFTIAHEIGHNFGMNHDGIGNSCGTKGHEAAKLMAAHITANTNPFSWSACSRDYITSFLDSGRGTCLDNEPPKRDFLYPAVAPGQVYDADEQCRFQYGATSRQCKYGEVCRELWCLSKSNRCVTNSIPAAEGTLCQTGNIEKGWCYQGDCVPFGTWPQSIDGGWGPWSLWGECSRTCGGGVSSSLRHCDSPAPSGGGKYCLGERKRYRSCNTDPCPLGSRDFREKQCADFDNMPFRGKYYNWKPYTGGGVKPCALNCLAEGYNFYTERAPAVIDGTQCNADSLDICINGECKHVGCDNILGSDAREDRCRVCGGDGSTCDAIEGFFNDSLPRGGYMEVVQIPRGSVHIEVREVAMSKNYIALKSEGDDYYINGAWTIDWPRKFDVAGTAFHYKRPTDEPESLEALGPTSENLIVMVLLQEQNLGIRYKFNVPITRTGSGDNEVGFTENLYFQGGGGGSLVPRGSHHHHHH
pIC50: −log10 of the molar value.

## Task Which measured pIC50 belongs to COc1cc(N2CCN(C(=O)[C@@H](C)C[C@@]3(C)NC(=O)NC3=O)CC2)cc(OC)c1Cl (stereo in doubt) , tested on human ADAMTS6 (Homo sapiens (Human))?
## Result 7.60 to 12.00

## Task pIC50 of COc1cccc(N2CCN(C(=O)CCC3(c4ccccn4)NC(=O)NC3=O)CC2)c1 (centres unmarked) on human ADAMTS6 (Homo sapiens (Human))?
## Result < 7.00

## Task # query: pIC50 | item CC[C@]1(C[C@H](C)C(=O)N2CCN(c3cc(F)c(F)c(OC)c3)CC2)NC(=O)NC1=O | system: human ADAMTS6 (Homo sapiens (Human))
## Result 7.60 to 12.00

## Task Any idea what pIC50 came out for COc1cc(N2CCN(C(=O)C(C)CC3(C)NC(=O)NC3=O)C[C@@H]2C)cc(C)c1Cl (mixture of isomers) on human ADAMTS6 (Homo sapiens (Human))?
## Result 7.60 to 12.00

## Task What measured pIC50 is associated with CCc1cc(N2CCN(C(=O)CC[C@@]3(C)NC(=O)NC3=O)C[C@@H]2C)c(OC)cc1Cl on human ADAMTS6 (Homo sapiens (Human))?
## Result < 7.00

## Task Look up pIC50 with human ADAMTS6 (Homo sapiens (Human)) for this compound: COc1cc(N2CCN(C(=O)CCC3(C)NC(=O)NC3=O)C[C@@H]2C)c(C)cc1Cl (some centres unmarked)
## Result 7.30 to 7.60

## Task Please provide the recorded pIC50 for COc1ccc(N2CCN(C(=O)CCC3(C)NC(=O)NC3=O)CC2)cc1 (centres unmarked) , tested on human ADAMTS6 (Homo sapiens (Human)).
## Result < 7.00

## Task Fill in the recorded pIC50 for this compound, with human ADAMTS6 (Homo sapiens (Human)) as test system: COc1cc(N2CCN(C(=O)[C@@H](C)C[C@@]3(CN4CCC(F)(F)C4)NC(=O)NC3=O)CC2)cc(F)c1F (stereo in doubt)
## Result 7.60 to 12.00

## Task Which measured pIC50 belongs to COc1cncc(N2CCN(C(=O)CCC3(C4CC4)NC(=O)NC3=O)C[C@@H]2C)c1 (some centres unmarked) , tested on human ADAMTS6 (Homo sapiens (Human))?
## Result < 7.00

## Task // lookup pIC50 | system=human ADAMTS6 (Homo sapiens (Human)) | key= CCc1cc(N2CCN(C(=O)CC[C@@]3(C)NC(=O)NC3=O)CC2)c(OC)cc1Cl
## Result < 7.00

## Task Tell me reported pIC50 for COc1cc(N2CCN(C(=O)CCC3(C)NC(=O)NC3=O)C[C@@H]2C)cc(Cl)c1F (some centres unmarked) , tested with human ADAMTS6 (Homo sapiens (Human)).
## Result 7.60 to 12.00

## Task Quick check: pIC50 on human ADAMTS6 (Homo sapiens (Human)), item COc1cc(N2CCN(C(=O)CCC3(C)NC(=O)NC3=O)C[C@@H]2C)ccc1Cl (some centres unmarked) ?
## Result 7.60 to 12.00

* * *

The following compounds are shown together with reported IC50 values.
- ASSAYED SYSTEM: human ADAMTS4 (Homo sapiens (Human), UniProt O75173)
- Sequence (O75173 213-837): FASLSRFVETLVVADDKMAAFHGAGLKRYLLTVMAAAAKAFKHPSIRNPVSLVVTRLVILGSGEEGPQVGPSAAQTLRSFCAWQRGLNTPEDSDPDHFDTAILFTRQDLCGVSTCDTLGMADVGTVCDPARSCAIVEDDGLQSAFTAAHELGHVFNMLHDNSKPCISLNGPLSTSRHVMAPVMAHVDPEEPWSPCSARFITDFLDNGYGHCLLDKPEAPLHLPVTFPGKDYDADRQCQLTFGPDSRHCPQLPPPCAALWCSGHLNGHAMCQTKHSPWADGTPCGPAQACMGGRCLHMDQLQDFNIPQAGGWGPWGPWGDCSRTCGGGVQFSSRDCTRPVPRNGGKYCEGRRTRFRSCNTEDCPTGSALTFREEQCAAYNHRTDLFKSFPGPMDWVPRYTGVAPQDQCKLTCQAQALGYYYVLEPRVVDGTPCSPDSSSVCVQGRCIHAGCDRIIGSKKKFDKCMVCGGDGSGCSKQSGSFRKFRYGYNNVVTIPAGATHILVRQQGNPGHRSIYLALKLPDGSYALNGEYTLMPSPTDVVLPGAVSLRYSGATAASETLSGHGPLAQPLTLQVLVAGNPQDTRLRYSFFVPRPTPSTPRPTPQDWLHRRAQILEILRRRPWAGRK
- ASSAY DETAILS: hADAMTS-4 TBIS-1 cleavage assay, Protocol 1
- Assay type: biochemical
- ASSAY SETUP: 60 min at room temperature, read-out: ADAMTS4 potency IC50

COMPOUND	RECORDED METRIC	VALUE
COc1cccc(N2CCN(C(=O)CCC3(C4CC4)NC(=O)NC3=O)CC2)c1 (centres unmarked)	IC50	25 to 50 nM

In the following, a different compound is considered.
## Task Given the compound COc1cccc(N2CCN(C(=O)CCC3(C)NC(=O)NC3=O)CC2)c1 (centres unmarked) , what is its reported IC50?
## Result > 100 nM
